assay: Metabolic stability in human liver microsome assessed as intrinsic clearance at […] preincubated for 5 mins followed by NADPH addition and measured after 20 mins by LC-MS analysis; type: ADME; conditions: liver microsomes, dose 2.5 µM, time 25 min, read-out: CLH
Form field: CLint scaled at […] (one value per entry).

{"columns": ["MOLECULE", "CLint scaled at […]"],
 "data": [
  ["COc1cccc(Sc2ccc3nc(N4CCC(C)(N)CC4)cnc3n2)c1Cl", "9 mL/min/kg"],
  ["Nc1nccc(Sc2ccc3nc(N4CCC5(CC4)Cc4ncc(F)cc4[C@H]5N)cnc3n2)c1Cl", "13 mL/min/kg"],
  ["Nc1nccc(Sc2ccc3nc(N4CCC5(CC4)Cc4cc(F)ccc4[C@H]5N)cnc3n2)c1Cl", "5 mL/min/kg"],
  ["Cc1ccc2c(n1)CC1(CCN(c3cnc4nc(Sc5ccnc(N)c5Cl)ccc4n3)CC1)[C@@H]2N", "14 mL/min/kg"],
  ["CC1(N)CCN(c2cnc3nc(Oc4cccc(Cl)c4Cl)ccc3n2)CC1", "4 mL/min/kg"],
  ["COc1ccc2c(c1)[C@@H](N)C1(CCN(c3cnc4nc(Sc5ccnc(N)c5Cl)ccc4n3)CC1)C2", "6 mL/min/kg"],
  ["Nc1nccc(Sc2ccc3nc(N4CCC5(CC4)Cc4ncccc4[C@H]5N)cnc3n2)c1Cl", "9 mL/min/kg"],
  ["Nc1nccc(Sc2ccc3nc(N4[C@H]5CC[C@H]4CC(N)C5)cnc3n2)c1Cl (some centres undefined)", "3 mL/min/kg"],
  ["CC1(N)CCN(c2cnc3nc(-c4cccc(Cl)c4Cl)ccc3n2)CC1", "3 mL/min/kg"]
]}

---

assay: AUClast in CD-1 mouse at 10 mg/kg, po measured upto 24 hrs by LC-MS/MS method; type: ADME, organism-based; design: time < 24 hrs, dose 10 mg/kg, route po; settings: in vivo
PROPERTY NAME: AUC(0-t) at 24 h (ng·h/mL)

{"columns": ["COMPOUND STRUCTURE", "MEASUREMENT"],
 "data": [
  ["C[C@@H]1OCC2(CCN(c3cnc4nc(Sc5ccnc(N)c5Cl)ccc4n3)CC2)[C@@H]1N", 2820]
]}

---

assay: Permeability of compound from apical to basolateral side in LLC-PK1 cells incubated for 2 hrs by LC-MS/MS analysis; assay type: ADME, cell-based, Sus scrofa; conditions: pig, read-out: permeability
Rule: Papp A→B at 2 h of 10 ×10⁻⁶ cm/s or more gives 1.0; anything lower gives 0.0.

{"columns": ["COMPOUND", "ANSWER LABEL"],
 "data": [
  ["COc1nccc(Sc2ccc3nc(N4CCC(C)(N)CC4)cnc3n2)c1Cl", 1.0],
  ["CC1(N)CCN(c2cnc3nc(Sc4cccc(C#N)c4Cl)ccc3n2)CC1", 0.0],
  ["CC1(N)CCN(c2cnc3nc(Sc4cccn5nccc45)ccc3n2)CC1", 1.0],
  ["CC1(N)CCN(c2cnc3nc(-c4cccc(F)c4Cl)ccc3n2)CC1", 1.0],
  ["CNC1(C)CCN(c2cnc3nc(Sc4ccnc(N)c4Cl)ccc3n2)CC1", 1.0],
  ["Nc1nccc(Sc2ccc3nc(N4CCC5(CC4)Cc4ncc(F)cc4[C@H]5N)cnc3n2)c1Cl", 0.0],
  ["C[C@@H]1OCC2(CCN(c3cnc4nc(Sc5ccnc(N)c5Cl)ccc4n3)CC2)[C@@H]1N", 1.0],
  ["Nc1nccc(Sc2ccc3nc(N4C[C@H]5C[C@@H](C4)[C@H]5N)cnc3n2)c1Cl", 1.0],
  ["COc1cnc2c(c1)[C@@H](N)C1(CCN(c3cnc4nc(Sc5ccnc(N)c5Cl)ccc4n3)CC1)C2", 0.0],
  ["Nc1nccc(Sc2ccc3nc(N4CCC5(CC4)C[C@@H](O)C[C@H]5N)cnc3n2)c1Cl", 0.0],
  ["CC1(N)CCN(c2cnc3nc(-c4cccc5ccccc45)ccc3n2)CC1", 1.0],
  ["CC1(N)CCN(c2cnc3nc(Oc4cccc(Cl)c4Cl)ccc3n2)CC1", 1.0],
  ["Nc1nccc(Sc2ccc3nc(N4CCC[C@H](N)CC4)cnc3n2)c1Cl", 0.0],
  ["Nc1nccc(Sc2ccc3nc(N4[C@H]5CC[C@H]4CC(N)C5)cnc3n2)c1Cl (stereo not given in full)", 0.0],
  ["Nc1nccc(Sc2ccc3nc(N4CCC5(CC4)Cc4ccccc4[C@H]5N)cnc3n2)c1Cl", 0.0],
  ["Nc1nccc(Sc2ccc3nc(N4CCC5(CC4)Cc4ncccc4[C@H]5N)cnc3n2)c1Cl", 1.0],
  ["Nc1nccc(Sc2ccc3nc(N4CCC5(CC4)Cc4cc(F)ccc4[C@H]5N)cnc3n2)c1Cl", 0.0]
]}

---

assay: Metabolic stability in human hepatocyte assessed as intrinsic clearance incubated for 1 to 2 hrs by LC-MS analysis; format: ADME, cell-based; conditions: hepatocytes, time 1-2 hrs, read-out: CLH
PROPERTY NAME: CLint scaled at 10000 µM (L/h/kg)

{"columns": ["COMPOUND STRUCTURE", "MEASUREMENT"],
 "data": [
  ["COc1nccc(Sc2ccc3nc(N4CCC(C)(N)CC4)cnc3n2)c1Cl", 0.12],
  ["Nc1nccc(Sc2ccc3nc(N4CCC5(CC4)Cc4ncccc4[C@H]5N)cnc3n2)c1Cl", 0.66],
  ["COc1ccc2c(c1)[C@@H](N)C1(CCN(c3cnc4nc(Sc5ccnc(N)c5Cl)ccc4n3)CC1)C2", 0.66],
  ["CNC1(C)CCN(c2cnc3nc(Sc4ccnc(N)c4Cl)ccc3n2)CC1", 0.3],
  ["Nc1nccc(Sc2ccc3nc(N4CCC5(CC4)C[C@@H](O)C[C@H]5N)cnc3n2)c1Cl", 0.48],
  ["Nc1nccc(Sc2ccc3nc(N4CCC5(CC4)Cc4ncc(F)cc4[C@H]5N)cnc3n2)c1Cl", 0.72],
  ["COc1cnc2c(c1)[C@@H](N)C1(CCN(c3cnc4nc(Sc5ccnc(N)c5Cl)ccc4n3)CC1)C2", 0.72],
  ["Nc1nccc(Sc2ccc3nc(N4C[C@H]5C[C@@H](C4)[C@H]5N)cnc3n2)c1Cl", 0.3],
  ["CC1(CN)CCN(c2cnc3nc(Sc4ccnc(N)c4Cl)ccc3n2)CC1", 0.12]
]}

---

assay: Half life in CD-1 mouse at 1 mg/kg, iv measured upto 8 hrs by LC-MS/MS method; type: ADME, organism-based; settings: in vivo

{"columns": ["COMPOUND STRUCTURE", "half-life"],
 "data": [
  ["Nc1nccc(Sc2ccc3nc(N4CCC5(CC4)Cc4ncccc4[C@H]5N)cnc3n2)c1Cl", "1.44 h"],
  ["C[C@@H]1OCC2(CCN(c3cnc4nc(Sc5ccnc(N)c5Cl)ccc4n3)CC2)[C@@H]1N", "1.48 h"]
]}

---

Molecular target: Tyrosine-protein phosphatase non-receptor type 11 (Homo sapiens)
Sequence (Q06124 whole entry): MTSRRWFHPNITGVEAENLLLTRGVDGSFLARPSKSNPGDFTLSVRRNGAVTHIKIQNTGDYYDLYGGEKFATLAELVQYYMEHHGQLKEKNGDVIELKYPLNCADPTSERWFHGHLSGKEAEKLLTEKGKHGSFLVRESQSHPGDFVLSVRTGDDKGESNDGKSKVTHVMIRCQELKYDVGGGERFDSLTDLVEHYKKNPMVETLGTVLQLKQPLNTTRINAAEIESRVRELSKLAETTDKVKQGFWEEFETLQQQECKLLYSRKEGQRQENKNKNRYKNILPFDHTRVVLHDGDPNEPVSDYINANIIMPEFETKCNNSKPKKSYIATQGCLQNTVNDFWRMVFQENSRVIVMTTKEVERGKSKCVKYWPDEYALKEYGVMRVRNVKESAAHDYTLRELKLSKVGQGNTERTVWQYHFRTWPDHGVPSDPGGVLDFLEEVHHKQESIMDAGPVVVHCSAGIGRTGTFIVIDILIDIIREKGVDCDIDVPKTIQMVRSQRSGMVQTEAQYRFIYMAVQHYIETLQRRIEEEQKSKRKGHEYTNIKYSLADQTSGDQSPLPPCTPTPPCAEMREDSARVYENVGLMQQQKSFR
Experiment: Allosteric inhibition of recombinant full length 6His-tagged SHP2 (2 to 527 residues) (unknown origin) expressed in Escherichia coli using DiFMUP as substrate incubated for 15 mins by microplate reader analysis
pIC50: −log10 of the molar value.
We'd kindly ask you to apply these pIC50 classes: LOW: < 6; MID: ≥ 6 and < 7; HIGH: ≥ 7

{"columns": ["COMPOUND STRUCTURE", "TARGET OR SYSTEM", "ANSWER LABEL"],
 "data": [
  ["COc1ccc2c(c1)[C@@H](N)C1(CCN(c3cnc4nc(Sc5ccnc(N)c5Cl)ccc4n3)CC1)C2", "Tyrosine-protein phosphatase non-receptor type 11 (Homo sapiens)", "HIGH"],
  ["COc1nccc(Sc2ccc3nc(N4CCC(C)(N)CC4)cnc3n2)c1Cl", "Tyrosine-protein phosphatase non-receptor type 11 (Homo sapiens)", "MID"],
  ["CC1(N)CCN(c2ncc(Sc3cccc(Cl)c3Cl)n3nccc23)CC1", "Tyrosine-protein phosphatase non-receptor type 11 (Homo sapiens)", "MID"],
  ["CC1(N)CCN(c2ccnc3c(Sc4cccc(Cl)c4Cl)cnn23)CC1", "Tyrosine-protein phosphatase non-receptor type 11 (Homo sapiens)", "MID"],
  ["CC1(N)CCN(c2cnc3c(Sc4cccc(Cl)c4Cl)cnn3c2)CC1", "Tyrosine-protein phosphatase non-receptor type 11 (Homo sapiens)", "MID"],
  ["Nc1nccc(Sc2ccc3nc(N4CCC5(CC4)Cc4cc(Cl)ccc4[C@H]5N)cnc3n2)c1Cl", "Tyrosine-protein phosphatase non-receptor type 11 (Homo sapiens)", "HIGH"],
  ["CC1(N)CCN(c2ccc(Sc3cccc(Cl)c3Cl)n3nccc23)CC1", "Tyrosine-protein phosphatase non-receptor type 11 (Homo sapiens)", "LOW"],
  ["CC1(N)CCN(c2cnc3nc(Sc4cccc(Cl)c4Cl)ccc3n2)CC1", "Tyrosine-protein phosphatase non-receptor type 11 (Homo sapiens)", "HIGH"],
  ["CC1(N)CCN(c2cnc3c(cnn3-c3cccc(Cl)c3Cl)n2)CC1", "Tyrosine-protein phosphatase non-receptor type 11 (Homo sapiens)", "LOW"],
  ["CC1(N)CCN(c2cnc3nc(-c4cccc(F)c4Cl)ccc3n2)CC1", "Tyrosine-protein phosphatase non-receptor type 11 (Homo sapiens)", "MID"]
]}

Values from ChEMBL document CHEMBL5390322
